Values from patent US10710978B2

Biological target: NDR2 (Homo sapiens (Human), UniProt Q9Y2H1)
Sequence (Q9Y2H1 whole entry): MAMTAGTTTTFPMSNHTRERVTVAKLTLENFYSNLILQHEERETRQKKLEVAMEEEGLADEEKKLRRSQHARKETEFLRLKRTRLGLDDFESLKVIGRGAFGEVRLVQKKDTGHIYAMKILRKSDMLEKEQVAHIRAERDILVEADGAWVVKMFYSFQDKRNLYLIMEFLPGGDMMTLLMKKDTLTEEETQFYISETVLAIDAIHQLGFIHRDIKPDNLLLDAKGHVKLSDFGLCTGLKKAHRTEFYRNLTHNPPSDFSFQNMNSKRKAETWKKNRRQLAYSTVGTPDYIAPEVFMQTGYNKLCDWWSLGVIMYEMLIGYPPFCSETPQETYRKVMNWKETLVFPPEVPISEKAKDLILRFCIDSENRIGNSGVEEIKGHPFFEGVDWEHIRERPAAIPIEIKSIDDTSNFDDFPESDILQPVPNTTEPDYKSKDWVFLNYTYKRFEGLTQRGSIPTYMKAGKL
Assay: KiNativ assay
Type: binding
Conditions: H929 live cell, read-out: inhibition (10 μM)
Procedure: Biochemical IC50s of the compounds of the present disclosure against various kinases were measured in a KiNativ assay. Compounds were screened in duplicate at 10 μM in H929 live cell. IC50 was measured via Mass spectroscopy (MS).
The entries below come with measured inhibition at 10 µM values attached.
measure-name: inhibition at 10 µM (%)

INSERT INTO measurements (smiles_data, measure_name, measured_number) VALUES
  ('Nc1ncc(-c2ccc(NS(=O)(=O)C3CC3)cc2F)cc1-c1ccc2c(c1)CCNC2=O', 'inhibition at 10 µM', 8.4),
  ('Nc1ncc(-c2ccc(NS(=O)(=O)C3CC3)cc2OC2CCCCC2)cc1-c1ccc2c(c1)CCNC2=O', 'inhibition at 10 µM', -8.7),
  ('CN(C1CC1)S(=O)(=O)c1ccc(-c2cnc(N)c(-c3ccc4c(c3)CCNC4=O)c2)c(F)c1', 'inhibition at 10 µM', 24.2),
  ('Nc1ncc(-c2cccc([N+](=O)[O-])c2F)cc1-c1ccc2c(c1)CCNC2=O', 'inhibition at 10 µM', -9.5),
  ('COc1cc(NS(=O)(=O)C2CC2)ccc1-c1cnc(N)c(-c2ccc3c(c2)CCNC3=O)c1', 'inhibition at 10 µM', 4.5),
  ('Nc1ncc(-c2cccc3ncsc23)cc1-c1ccc2c(c1)CCNC2=O', 'inhibition at 10 µM', 4);

====

target: UniProt Q8TD19; assay: KiNativ assay; assay type: binding; settings: H929 live cell, read-out: inhibition (10 μM)
Sequence (Q8TD19 whole entry): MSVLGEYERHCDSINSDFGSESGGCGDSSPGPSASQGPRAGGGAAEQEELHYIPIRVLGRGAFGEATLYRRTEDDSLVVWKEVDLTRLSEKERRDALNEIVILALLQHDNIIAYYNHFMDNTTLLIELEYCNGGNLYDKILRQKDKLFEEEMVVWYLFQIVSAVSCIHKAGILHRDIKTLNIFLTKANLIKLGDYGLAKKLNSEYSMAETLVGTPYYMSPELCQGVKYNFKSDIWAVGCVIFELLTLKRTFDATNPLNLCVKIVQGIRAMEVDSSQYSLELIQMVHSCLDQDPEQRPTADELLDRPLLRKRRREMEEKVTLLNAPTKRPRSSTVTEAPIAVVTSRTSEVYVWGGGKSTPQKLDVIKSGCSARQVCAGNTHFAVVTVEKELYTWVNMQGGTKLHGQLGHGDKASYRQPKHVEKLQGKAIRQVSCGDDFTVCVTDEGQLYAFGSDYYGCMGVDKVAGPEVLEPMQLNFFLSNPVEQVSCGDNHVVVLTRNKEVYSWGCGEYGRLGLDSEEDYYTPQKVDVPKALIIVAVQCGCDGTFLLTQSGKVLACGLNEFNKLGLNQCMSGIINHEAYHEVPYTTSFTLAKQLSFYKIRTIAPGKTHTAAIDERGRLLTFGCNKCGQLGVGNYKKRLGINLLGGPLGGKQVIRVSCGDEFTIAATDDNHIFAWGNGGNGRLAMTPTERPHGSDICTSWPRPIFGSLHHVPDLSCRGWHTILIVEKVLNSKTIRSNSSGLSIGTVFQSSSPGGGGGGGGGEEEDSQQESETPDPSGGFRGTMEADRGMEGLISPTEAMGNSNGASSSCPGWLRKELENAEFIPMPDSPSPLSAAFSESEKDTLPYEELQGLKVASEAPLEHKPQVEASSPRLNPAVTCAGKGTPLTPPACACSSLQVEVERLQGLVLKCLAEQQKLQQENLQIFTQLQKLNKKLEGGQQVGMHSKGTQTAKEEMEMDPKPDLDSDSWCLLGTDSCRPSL
Decision: inhibition at 10 µM compared against -20%; not below it gives 1, below it gives 0.

INSERT INTO assay_data (smiles_data, class) VALUES
  ('Nc1ncc(-c2cccc3ncsc23)cc1-c1ccc2c(c1)CCNC2=O', 1),
  ('Nc1ncc(-c2ccc(NS(=O)(=O)C3CC3)cc2F)cc1-c1ccc2c(c1)CCNC2=O', 0),
  ('Nc1ncc(-c2cccc([N+](=O)[O-])c2F)cc1-c1ccc2c(c1)CCNC2=O', 0),
  ('Nc1ncc(-c2ccc(NS(=O)(=O)C3CC3)cc2OC2CCCCC2)cc1-c1ccc2c(c1)CCNC2=O', 0),
  ('CN(C1CC1)S(=O)(=O)c1ccc(-c2cnc(N)c(-c3ccc4c(c3)CCNC4=O)c2)c(F)c1', 1),
  ('COc1cc(NS(=O)(=O)C2CC2)ccc1-c1cnc(N)c(-c2ccc3c(c2)CCNC3=O)c1', 1);

====

target: RSKL1 (Homo sapiens (Human), UniProt Q96S38); assay: KiNativ assay; format: binding; details: H929 live cell, read-out: inhibition (10 μM)
Sequence (Q96S38 whole entry): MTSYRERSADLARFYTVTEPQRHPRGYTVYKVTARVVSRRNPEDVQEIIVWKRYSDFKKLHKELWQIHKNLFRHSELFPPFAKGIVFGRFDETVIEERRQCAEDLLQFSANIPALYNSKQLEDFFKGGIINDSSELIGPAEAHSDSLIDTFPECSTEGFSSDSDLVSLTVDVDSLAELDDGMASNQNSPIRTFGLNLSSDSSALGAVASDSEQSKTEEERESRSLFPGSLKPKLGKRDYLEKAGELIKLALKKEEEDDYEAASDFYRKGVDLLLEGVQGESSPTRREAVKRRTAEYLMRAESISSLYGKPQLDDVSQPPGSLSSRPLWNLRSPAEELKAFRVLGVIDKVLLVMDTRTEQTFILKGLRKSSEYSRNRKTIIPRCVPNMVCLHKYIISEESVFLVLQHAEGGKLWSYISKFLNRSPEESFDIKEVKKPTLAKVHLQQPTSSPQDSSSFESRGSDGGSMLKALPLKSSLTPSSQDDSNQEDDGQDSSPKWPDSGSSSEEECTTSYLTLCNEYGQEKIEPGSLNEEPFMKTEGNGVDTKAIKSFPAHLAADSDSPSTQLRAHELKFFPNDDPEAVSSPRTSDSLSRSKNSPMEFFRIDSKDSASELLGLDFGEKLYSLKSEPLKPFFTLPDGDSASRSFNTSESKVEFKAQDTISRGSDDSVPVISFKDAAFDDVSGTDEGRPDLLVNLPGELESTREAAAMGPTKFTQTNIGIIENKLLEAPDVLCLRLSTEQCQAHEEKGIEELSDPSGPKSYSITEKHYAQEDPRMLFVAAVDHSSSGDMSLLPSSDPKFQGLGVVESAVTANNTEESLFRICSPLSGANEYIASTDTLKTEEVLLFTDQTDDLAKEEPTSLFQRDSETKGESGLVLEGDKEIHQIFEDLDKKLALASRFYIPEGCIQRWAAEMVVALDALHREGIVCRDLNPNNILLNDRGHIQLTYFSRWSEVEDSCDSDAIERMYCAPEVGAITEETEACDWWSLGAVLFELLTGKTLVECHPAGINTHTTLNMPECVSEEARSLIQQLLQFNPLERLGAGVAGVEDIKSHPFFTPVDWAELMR
Given measured inhibition at 10 µM, output 1 if it is greater than or equal to -10% and -1 if not.

INSERT INTO results (smiles_data, study_target, class) VALUES
  ('Nc1ncc(-c2ccc(NS(=O)(=O)C3CC3)cc2F)cc1-c1ccc2c(c1)CCNC2=O', 'RSKL1 (Homo sapiens (Human), UniProt Q96S38)', -1),
  ('COc1cc(NS(=O)(=O)C2CC2)ccc1-c1cnc(N)c(-c2ccc3c(c2)CCNC3=O)c1', 'RSKL1 (Homo sapiens (Human), UniProt Q96S38)', 1),
  ('Nc1ncc(-c2cccc3ncsc23)cc1-c1ccc2c(c1)CCNC2=O', 'RSKL1 (Homo sapiens (Human), UniProt Q96S38)', 1),
  ('CN(C1CC1)S(=O)(=O)c1ccc(-c2cnc(N)c(-c3ccc4c(c3)CCNC4=O)c2)c(F)c1', 'RSKL1 (Homo sapiens (Human), UniProt Q96S38)', -1),
  ('Nc1ncc(-c2ccc(NS(=O)(=O)C3CC3)cc2OC2CCCCC2)cc1-c1ccc2c(c1)CCNC2=O', 'RSKL1 (Homo sapiens (Human), UniProt Q96S38)', -1),
  ('Nc1ncc(-c2cccc([N+](=O)[O-])c2F)cc1-c1ccc2c(c1)CCNC2=O', 'RSKL1 (Homo sapiens (Human), UniProt Q96S38)', 1);
